target: LXRα ligand-binding domain (LBD) (Homo sapiens); experiment: LXR Gal4 reporter transient transfection assay (M2H), Gal4α LBD; settings: HEK293 cells; read-out: M2H Gal4α LBD activity range (EC50)
pEC50: −log10 of the molar value.
TEST_READOUT: pEC50

                                smiles_text        result
0  Cc1cc(C)c(S(=O)(=O)N(Cc2ccc(-c3cccc(C4(C(=O)O)CCOCC4)c3)cc2)Cc2ccc(C(F)(F)F)o2)c(C)c1  6.00 to 7.00
1  Cc1cc(C)c(S(=O)(=O)N(Cc2ccc(-c3cccc(CC(=O)O)c3)cc2)Cc2ccc(C(F)(F)F)o2)c(C)c1  6.00 to 7.00

// next entry
Note to self: pEC50 recorded for Cc1cc(C)c(S(=O)(=O)N(Cc2ccc(C(F)(F)F)o2)Cc2ccc(-c3cccc(C(C)(C)C(=O)O)c3)cc2Cl)c(C)c1 was > 7.00

====

target: GST-LXRβ ligand-binding domain (Homo sapiens, UniProt P55055, DUP175-175); construct: amino acids 156-461; NP009052; assay: TR-FRETβ activity assay (LXRβ-LBD / NCoA3 coactivator peptide, prestimulated with 24(S)-25-epoxycholesterol); settings: 1 μM 24(S)-25-epoxycholesterol as prestimulating agonist; read-out: FRETβ activity range (EC50)
Please provide measured EC50 for the entries that follow.

Field: EC50. Fill in for each record below.
1. Cc1cc(C)c(S(=O)(=O)N(Cc2ccc(-c3ccc(OCC(=O)O)cc3)cc2)Cc2ccc(C(F)(F)F)o2)c(C)c1
2. COc1cc(C)cc(C)c1S(=O)(=O)N(Cc1ccc(-c2cccc(S(=O)(=O)CC(=O)O)c2)cc1)Cc1ccc(C(F)(F)F)o1
3. Cc1cc(C)c(S(=O)(=O)N(Cc2ccc(-c3cccc(S(=O)(=O)CCCC(=O)O)c3)cc2)Cc2ccc(C(F)(F)F)o2)c(C)c1

1 to 10 µM
1 to 10 µM
1 to 10 µM

====

Biological target: LXRα ligand-binding domain (LBD) (Homo sapiens, UniProt Q13133)
Sequence (Q13133 155-447): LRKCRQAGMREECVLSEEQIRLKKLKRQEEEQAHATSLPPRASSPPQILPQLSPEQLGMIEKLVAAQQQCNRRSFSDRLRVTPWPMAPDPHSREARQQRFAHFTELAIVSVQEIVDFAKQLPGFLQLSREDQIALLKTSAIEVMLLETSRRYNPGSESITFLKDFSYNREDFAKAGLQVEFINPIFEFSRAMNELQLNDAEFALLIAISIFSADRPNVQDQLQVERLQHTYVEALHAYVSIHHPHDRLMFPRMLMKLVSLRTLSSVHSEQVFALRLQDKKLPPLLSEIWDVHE
Assay: LXR Gal4 reporter transient transfection assay (M2H), Gal4α LBD
Settings: HEK293 cells; read-out: M2H Gal4α LBD activity range (EC50)
TEST_READOUT: EC50

Examples from the recorded data:
>>> df
                                smiles_text            result
0  Cc1cc(C)c(S(=O)(=O)N(Cc2ccc(C3=CS(=O)(=O)C(CC(=O)O)=C3)cc2)Cc2ccc(C(F)(F)F)o2)c(C)c1    100 to 1000 nM
1  Cc1cc(C)c(S(=O)(=O)N(Cc2ccc(-c3cccc(S(=O)(=O)CCCC(=O)O)c3)cc2)Cc2ccc(C(F)(F)F)o2)c(C)c1    100 to 1000 nM
2  COc1cc(-c2ccc3c(c2)C(C)(C)C(=O)OC3)ccc1CN(Cc1ccc(C(F)(F)F)o1)S(=O)(=O)c1c(C)ccc2ccccc12  1000 to 10000 nM

Now turn to the next compound.
Lab note: measured EC50 of Cc1cc(C)c(S(=O)(=O)N(Cc2ccc(-c3cncc(C(C)(C)C(=O)O)c3)cc2)Cc2ccc(C(F)(F)F)o2)c(C)c1 was 100 to 1000 nM

====

target: GST-LXRβ ligand-binding domain (Homo sapiens, UniProt P55055, DUP175-175); construct: amino acids 156-461; NP009052; made in house; host or cells: E. coli; experiment: TR-FRETβ activity assay (LXRβ-LBD / NCoA3 coactivator peptide, prestimulated with 24(S)-25-epoxycholesterol); type: biochemical; set-up: key: ag=agonist; ia=inverse agonist; conditions: agonist or inverse agonist
TEST_READOUT: behavior in FRET assay

Observe how each entry below is paired with its result.
In [3]: df
Out[3]:
                                   compound            test_readout  result
0  Cc1nn2cccnc2c1S(=O)(=O)N(Cc1ccc(-c2cccc(C(C)(C)C(=O)O)c2)cc1)Cc1ccc(C(F)(F)F)o1  behavior in FRET assay      ag
1  COc1cc(-c2cccc(C(C)(C)C(=O)O)c2)ccc1CN(Cc1ccc(C(F)(F)F)o1)S(=O)(=O)c1c(C)cc(C)cc1C  behavior in FRET assay      ia
2  Cc1cc(C)c(S(=O)(=O)N(Cc2ccc(C(F)(F)F)o2)Cc2sc(-c3cccc(C(C)(C)C(=O)O)c3)cc2Cl)c(C)c1  behavior in FRET assay      ag
3  Cc1cc(C)c(S(=O)(=O)N(Cc2ccc(-c3cccc(CC(=O)O)c3)cc2)C(C)c2ccc(C(F)(F)F)o2)c(C)c1 (centres unmarked)  behavior in FRET assay      ia
4  CC(=O)NS(=O)(=O)c1cccc(-c2ccc(CN(Cc3ccc(C(F)(F)F)o3)S(=O)(=O)c3c(C)cc(C)cc3C)cc2)c1  behavior in FRET assay      ia

Consider the following items and state reported behavior in FRET assay for each.
1. COc1ccc(-c2ccc(CN(Cc3ccc(C(F)(F)F)o3)S(=O)(=O)c3c(C)cc(C)cc3C)cc2)cc1C(C)(C)C(=O)O
2. Cc1ccc2ccccc2c1S(=O)(=O)N(Cc1ccc(-c2cccc(C(C)(C)C(=O)O)c2)cc1)Cc1ccc(C(F)(F)F)o1
3. Cc1cc(C)c(S(=O)(=O)N(Cc2ccc(C3=CS(=O)(=O)C(CC(=O)O)=C3)cc2)Cc2ccc(C(F)(F)F)o2)c(C)c1

ia
ia
ia

====

Target: LXRβ ligand-binding domain (LBD) (Homo sapiens, UniProt P55055, DUP175-175)
Construct: LXRβ (amino acids 156-461)
Sequence (P55055 with tags, fused parts or gaps DUP175-175): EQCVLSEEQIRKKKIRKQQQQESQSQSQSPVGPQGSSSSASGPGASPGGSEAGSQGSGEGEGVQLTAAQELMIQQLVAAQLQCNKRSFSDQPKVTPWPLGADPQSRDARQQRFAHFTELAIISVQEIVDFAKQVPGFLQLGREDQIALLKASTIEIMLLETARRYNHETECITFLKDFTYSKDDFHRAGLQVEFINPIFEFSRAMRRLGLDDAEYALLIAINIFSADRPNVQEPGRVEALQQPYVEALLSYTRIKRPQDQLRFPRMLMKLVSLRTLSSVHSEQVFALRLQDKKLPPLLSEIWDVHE
Assay: LXR Gal4 reporter transient transfection assay (M2H), Gal4β LBD
Details: HEK293 cells; read-out: M2H Gal4β LBD activity range (EC50)
Protocol: The tested compounds were usually dissolved, tested and stored as 20 mM stock solutions in DMSO. […] LXRα and LXRβ activity status was determined via detection of interaction with coactivator and corepressor proteins in mammalian two-hybrid experiments (M2H). […] Interaction was monitored via activation of a coexpressed Firefly Luciferase Reporter gene under control of a promoter containing repetitive GAL4 response elements (vector pFRLuc; Stratagene). […]
TEST_READOUT: EC50

Give measured EC50 for every item shown.
1. Cc1cc(C)c(S(=O)(=O)N(Cc2ccc(-c3cccc(C(F)(F)C(=O)O)c3)cc2)Cc2ccc(C(F)(F)F)o2)c(C)c1 [5/4]
2. COc1ccc(-c2ccc(CN(Cc3ccc(C(F)(F)F)o3)S(=O)(=O)c3c(C)cc(C)cc3C)cc2)cc1C(C)(C)C(=O)O [7/9]
3. Cc1cc(C)c(S(=O)(=O)N(Cc2ccc(-c3cccc(S(=O)(=O)CCCC(=O)O)c3)cc2)Cc2ccc(C(F)(F)F)o2)c(C)c1 [7/2]

1. 100 to 1000 nM
2. < 100 nM
3. 100 to 1000 nM

====

molecular target: LXRβ full length (FL) (Homo sapiens, UniProt P55055, DUP175-175); construct: the full length (FL) proteins of LXRα (amino acids 1-447); NP005684; NP009052; experiment: LXR Gal4 reporter transient transfection assay (M2H), Gal4β FL; conditions: HEK293 cells; read-out: M2H Gal4β FL activity range (EC50)
Sequence (P55055 with tags, fused parts or gaps DUP175-175): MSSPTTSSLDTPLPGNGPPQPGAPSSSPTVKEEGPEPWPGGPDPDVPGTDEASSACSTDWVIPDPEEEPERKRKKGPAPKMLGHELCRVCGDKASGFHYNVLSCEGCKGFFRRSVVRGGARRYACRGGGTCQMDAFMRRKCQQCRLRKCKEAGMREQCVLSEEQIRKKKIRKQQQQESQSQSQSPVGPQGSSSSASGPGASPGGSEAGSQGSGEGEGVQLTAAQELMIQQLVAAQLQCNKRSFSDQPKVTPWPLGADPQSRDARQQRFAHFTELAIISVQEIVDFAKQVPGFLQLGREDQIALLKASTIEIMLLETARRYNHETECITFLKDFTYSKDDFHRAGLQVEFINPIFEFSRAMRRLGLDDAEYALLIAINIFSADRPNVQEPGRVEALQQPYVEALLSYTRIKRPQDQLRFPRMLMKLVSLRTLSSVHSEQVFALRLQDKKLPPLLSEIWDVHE
Record form. Attribute: EC50. Fill in for each entry.

In the examples that follow, each entry is paired with its recorded EC50.
                                smiles_text       result
0  O=C(O)CS(=O)(=O)c1cccc(-c2ccc(CN(Cc3ccc(C(F)(F)F)o3)S(=O)(=O)c3cccc4ccccc34)cc2)c1  0.1 to 1 µM
1  Cc1cc(C)c(S(=O)(=O)N(Cc2ccc(-c3cccc(S(=O)(=O)CC(=O)O)c3)cc2)Cc2cccc(Cl)c2)c(C)c1  0.1 to 1 µM

Please turn your attention to the following entry.
Bench note, LXRβ full length (FL) (Homo sapiens, UniProt P55055, DUP175-175): COc1cc(C)cc(C)c1S(=O)(=O)N(Cc1ccc(-c2cccc(S(=O)(=O)CC(=O)O)c2)cc1)Cc1ccc(C(F)(F)F)o1 , EC50 reads 1 to 10 µM
